Test system: Aspergillus niger
test summary: Antifungal activity against Aspergillus niger by liquid dilution method
Format: functional
observable: MIC (µg/mL)

MIC recorded for this molecule, O=c1oc2ccc([N+](=O)[O-])cc2cc1-c1nc2ccccc2c2nc3c4nsnc4ccc3n12 , is 35

MIC recorded for this molecule, O=c1oc2ccccc2cc1-c1nc2ccccc2c2nc3c4nsnc4ccc3n12 , is 40

MIC recorded for this molecule, O=c1oc2c(Br)cccc2cc1-c1nc2ccccc2c2nc3ccccc3n12 , is 40

MIC recorded for this molecule, CC(=O)N1CCN(c2ccc(OCC3COC(Cn4ccnc4)(c4ccc(Cl)cc4Cl)O3)cc2)CC1 (centres undefined) , is 15
